# TARGET OF ASSAY: cAMP and cAMP-inhibited cGMP 3',5'-cyclic phosphodiesterase 10A (Homo sapiens, UniProt Q9Y233)
# Sequence (Q9Y233 whole entry, the tested form may be a part): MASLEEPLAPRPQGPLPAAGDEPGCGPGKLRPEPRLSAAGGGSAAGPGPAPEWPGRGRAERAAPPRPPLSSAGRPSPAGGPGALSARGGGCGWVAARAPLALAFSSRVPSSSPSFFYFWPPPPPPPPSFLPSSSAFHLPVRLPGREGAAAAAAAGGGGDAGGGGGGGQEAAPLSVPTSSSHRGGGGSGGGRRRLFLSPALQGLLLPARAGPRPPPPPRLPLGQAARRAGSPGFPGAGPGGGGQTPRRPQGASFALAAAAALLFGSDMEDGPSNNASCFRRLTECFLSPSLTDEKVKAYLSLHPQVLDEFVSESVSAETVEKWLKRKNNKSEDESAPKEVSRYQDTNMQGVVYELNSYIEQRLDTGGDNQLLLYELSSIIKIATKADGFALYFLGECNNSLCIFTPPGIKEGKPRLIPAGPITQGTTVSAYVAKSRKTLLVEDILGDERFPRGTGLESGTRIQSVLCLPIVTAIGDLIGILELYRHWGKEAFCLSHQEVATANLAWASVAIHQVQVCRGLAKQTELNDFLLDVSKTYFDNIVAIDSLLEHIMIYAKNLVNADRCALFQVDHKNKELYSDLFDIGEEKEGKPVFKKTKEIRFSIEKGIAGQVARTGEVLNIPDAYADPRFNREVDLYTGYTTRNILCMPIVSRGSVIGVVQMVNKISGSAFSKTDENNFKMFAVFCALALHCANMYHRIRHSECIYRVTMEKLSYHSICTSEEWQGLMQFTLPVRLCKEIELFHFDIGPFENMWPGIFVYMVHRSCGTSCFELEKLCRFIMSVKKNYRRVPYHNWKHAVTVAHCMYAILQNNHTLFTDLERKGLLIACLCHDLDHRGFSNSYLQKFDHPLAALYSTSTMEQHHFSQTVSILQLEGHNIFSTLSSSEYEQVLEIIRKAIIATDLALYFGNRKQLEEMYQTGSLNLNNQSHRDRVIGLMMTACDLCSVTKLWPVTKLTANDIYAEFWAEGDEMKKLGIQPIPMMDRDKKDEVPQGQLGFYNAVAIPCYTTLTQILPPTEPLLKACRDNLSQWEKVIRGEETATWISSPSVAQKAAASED
# PROCEDURE DETAILS: Inhibition of recombinant human N-terminal GST-tagged PDE10A1 (2 to 789 residues) expressed in baculovirus infected Sf9 cells using fluorescein-labeled cAMP as substrate preincubated for 15 mins followed by substrate addition measured after 30 mins by IMAP fluorescence polarization assay
Parameter class (string): assigned from measured IC50. Ranges: group 1: < 100 nM; group 2: ≥ 100 nM and < 300 nM; group 3: ≥ 300 nM

c1ccc2cc(Cn3cnc4c(N5CCOCC5)ncnc43)ccc2c1    group 2
Cc1nc2c(N3CCOCC3)ncnc2n1Cc1ccc(-c2cnc3[nH]ncc3c2)cc1    group 1
Cc1nc2c(N3CCOCC3)ncnc2n1Cc1ccc(Br)cc1    group 3
Cc1nc2c(N3CCOCC3)ncnc2n1Cc1ccc(-c2ccncc2)cc1    group 2
Cc1nc2c(N3CCOCC3)ncnc2n1Cc1ccc(-c2cnn(C)c2)cc1    group 1

Lookup: In plain terms, what class is Cc1noc(C)c1-c1ccc(CNc2c(C)nc3c(N4CCOCC4)nccn23)cc1 ?
Found: group 3

Lookup: For Cc1nc2c(N3CCOCC3)nccn2c1NCc1ccc(-c2cccnc2)cc1 , which IC50 bin applies?
Found: group 3

----------
# TARGET OF ASSAY: PDE2A1 (Homo sapiens)
# Sequence (O00408 whole entry, the tested form may be a part): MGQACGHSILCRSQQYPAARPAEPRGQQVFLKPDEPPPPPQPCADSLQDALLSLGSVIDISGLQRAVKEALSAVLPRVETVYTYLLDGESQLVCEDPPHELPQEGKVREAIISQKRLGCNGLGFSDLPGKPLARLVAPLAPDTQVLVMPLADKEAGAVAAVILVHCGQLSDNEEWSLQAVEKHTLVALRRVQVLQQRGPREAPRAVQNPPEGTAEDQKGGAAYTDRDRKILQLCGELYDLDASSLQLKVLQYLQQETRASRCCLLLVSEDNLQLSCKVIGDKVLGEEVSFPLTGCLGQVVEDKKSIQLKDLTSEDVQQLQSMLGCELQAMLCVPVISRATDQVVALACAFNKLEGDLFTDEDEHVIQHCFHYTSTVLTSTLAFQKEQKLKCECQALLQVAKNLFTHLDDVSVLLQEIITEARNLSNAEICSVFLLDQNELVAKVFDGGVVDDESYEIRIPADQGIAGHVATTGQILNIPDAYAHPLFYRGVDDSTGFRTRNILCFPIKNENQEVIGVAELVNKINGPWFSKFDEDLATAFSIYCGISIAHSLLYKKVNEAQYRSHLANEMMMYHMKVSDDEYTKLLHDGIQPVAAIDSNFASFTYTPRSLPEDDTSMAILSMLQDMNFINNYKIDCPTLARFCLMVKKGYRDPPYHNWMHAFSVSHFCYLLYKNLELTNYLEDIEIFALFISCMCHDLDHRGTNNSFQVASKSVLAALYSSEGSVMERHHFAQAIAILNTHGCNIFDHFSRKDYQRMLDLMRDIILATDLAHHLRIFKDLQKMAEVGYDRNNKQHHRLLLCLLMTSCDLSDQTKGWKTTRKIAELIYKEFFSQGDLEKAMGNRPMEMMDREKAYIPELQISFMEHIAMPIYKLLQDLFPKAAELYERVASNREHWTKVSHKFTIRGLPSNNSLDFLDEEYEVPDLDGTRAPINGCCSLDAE
# PROCEDURE DETAILS: Inhibition of recombinant human N-terminal FLAG-tagged PDE2A1 (2 to 941 residues) expressed in baculovirus infected Sf9 cells at 1 uM using fluorescein-labeled cAMP as substrate preincubated for 15 mins followed by substrate addition measured after 30 mins by IMAP fluorescence polarization assay relative to control
# TEST CONTEXT: probe fluorescein-labeled cAMP
Listing of entries alongside the reported inhibition at 0.5 h, 1 µM.
Please respond with the number in % and leave the unit unwritten.

Example entries begin here.
Cc1nc2c(N3CCOCC3)ncnc2n1Cc1ccc(-c2ccccc2Cl)cc1    29
Cc1nc2c(N3CCOCC3)ncnc2n1Cc1ccc(-c2cncnc2)cc1    4

Lookup: Request body: readout inhibition at 0.5 h, 1 µM, system PDE2A1 (Homo sapiens), query COc1ccc(-c2ccc(CNc3c(C)nc4c(N5CCOCC5)nccn34)cc2)cc1OC . Return the value.
Found: 5

----------
# TARGET OF ASSAY: CYP2C19 (Homo sapiens)
# Sequence (P33261 whole entry): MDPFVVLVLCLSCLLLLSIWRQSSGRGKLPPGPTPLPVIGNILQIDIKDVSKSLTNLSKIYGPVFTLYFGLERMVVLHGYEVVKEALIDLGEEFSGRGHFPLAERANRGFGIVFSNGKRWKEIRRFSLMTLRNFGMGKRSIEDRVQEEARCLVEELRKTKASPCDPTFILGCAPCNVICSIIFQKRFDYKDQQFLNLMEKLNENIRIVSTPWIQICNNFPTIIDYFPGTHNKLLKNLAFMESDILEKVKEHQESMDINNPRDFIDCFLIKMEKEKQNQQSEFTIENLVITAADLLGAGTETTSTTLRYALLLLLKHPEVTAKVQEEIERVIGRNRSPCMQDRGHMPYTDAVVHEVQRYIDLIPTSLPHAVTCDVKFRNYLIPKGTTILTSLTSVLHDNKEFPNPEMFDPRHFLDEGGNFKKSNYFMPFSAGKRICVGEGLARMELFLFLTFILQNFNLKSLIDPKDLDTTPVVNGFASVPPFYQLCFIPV
# PROCEDURE DETAILS: Inhibition of CYP2C19 in human microsomes at 10 uM using mephenytoin as substrate preincubated for 5 mins followed by NADPH addition measured 20 mins relative to control
# Type: ADME
# TEST CONTEXT: human microsomes, probe mephenytoin, read-out: TDI
MEASURED ENDPOINT: inhibition at 20 min, 10 µM
Give your result as the value with the unit written after it.

Field: example entries. Status: answers known.
Cc1cc(-c2ccc(Cn3c(C)nc4c(N5CCOCC5)ncnc43)cc2)ccn1    21%
Cc1nc2c(N3CCOCC3)ncnc2n1Cc1ccc(-c2cnn(C)c2)cc1    22%
Cc1ccc(-c2ccc(Cn3cnc4c(N5CCOCC5)ncnc43)cc2)cc1    44%

Shifting focus to the molecule that follows.
Lookup: // inhibition at 20 min, 10 µM lookup, key: Cc1nc2c(N3CCOCC3)ncnc2n1Cc1ccc(-c2ccccc2Cl)cc1
Found: 65%

----------
Measured inhibition accompanies every entry in the list below.
# TARGET OF ASSAY: UniProt:Q9Y233
# PROCEDURE DETAILS: Inhibition of recombinant human N-terminal GST-tagged PDE10A1 (2 to 789 residues) expressed in baculovirus infected Sf9 cells at 5 uM using fluorescein-labeled cAMP as substrate preincubated for 15 mins followed by substrate addition measured after 30 mins by IMAP fluorescence polarization assay relative to control
Give just the number in %; leave the unit off.

Lookup: State its inhibition on UniProt:Q9Y233: Cc1nc2c(N3CCOCC3)ncnc2n1Cc1ccc(-c2ccc(Cl)cc2)cc1
Found: 91

----------
Below, each of the compounds is paired with its reported inhibition at 20 min, 10 µM value.
# TARGET OF ASSAY: CYP1A2 (Homo sapiens, UniProt P05177)
# Sequence (P05177 whole entry): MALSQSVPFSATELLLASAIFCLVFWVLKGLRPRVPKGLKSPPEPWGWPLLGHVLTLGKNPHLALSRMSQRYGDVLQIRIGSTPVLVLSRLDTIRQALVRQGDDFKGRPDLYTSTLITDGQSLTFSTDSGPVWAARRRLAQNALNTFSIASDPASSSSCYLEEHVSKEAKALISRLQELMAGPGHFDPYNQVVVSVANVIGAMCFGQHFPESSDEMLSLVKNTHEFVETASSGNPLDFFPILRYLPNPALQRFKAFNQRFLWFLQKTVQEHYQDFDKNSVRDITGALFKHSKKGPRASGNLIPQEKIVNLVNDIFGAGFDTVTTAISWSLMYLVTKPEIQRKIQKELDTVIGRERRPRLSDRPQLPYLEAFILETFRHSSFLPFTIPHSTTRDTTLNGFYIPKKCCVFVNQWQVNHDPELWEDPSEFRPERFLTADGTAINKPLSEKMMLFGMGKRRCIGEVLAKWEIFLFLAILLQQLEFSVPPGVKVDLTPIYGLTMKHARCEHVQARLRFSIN
# PROCEDURE DETAILS: Time-dependent inhibition of CYP1A2 in human microsomes at 10 uM using phenacetin as substrate preincubated for 5 mins followed by NADPH addition measured 20 mins relative to control
# Format: ADME
# TEST CONTEXT: human microsomes, probe phenacetin, read-out: TDI
Provide only the numeric value, understood in %.

Cc1cc(-c2ccc(Cn3c(C)nc4c(N5CCOCC5)ncnc43)cc2)ccn1    30
Cc1ccc(-c2ccc(Cn3cnc4c(N5CCOCC5)ncnc43)cc2)cc1    20

Lookup: // inhibition at 20 min, 10 µM lookup, key: Cc1nc2c(N3CCOCC3)ncnc2n1Cc1ccc(-c2cncnc2)cc1
Found: 10

----------
Quick reference for half-life at 1 µM among some compounds
# PROCEDURE DETAILS: Half life in mouse liver microsomes at 1 uM preincubated for 5 mins followed by NADPH addition measured up to 30 mins by LC-MS/MS analysis
# Assay type: ADME, microsome
# output: bare number, implied unit min

Consider the worked cases shown below.
Cc1nc2c(N3CCOCC3)ncnc2n1Cc1ccc(-c2cnn(C)c2)cc1    99
COc1ccc(-c2ccc(CNc3c(C)nc4c(N5CCOCC5)nccn34)cc2)cc1OC    12.8
Cc1nc2c(N3CCOCC3)ncnc2n1Cc1ccc(-c2cncnc2)cc1    69.3
Cc1cc(-c2ccc(Cn3c(C)nc4c(N5CCOCC5)ncnc43)cc2)ccn1    23.9
Cc1ccc(-c2ccc(Cn3cnc4c(N5CCOCC5)ncnc43)cc2)cc1    49.5

Then this compound:
Lookup: Quick check: half-life at 1 µM of Cc1nc2c(N3CCOCC3)ncnc2n1Cc1ccc(-c2ccccc2Cl)cc1 ?
Found: 17.8

----------
# TARGET OF ASSAY: cAMP and cAMP-inhibited cGMP 3',5'-cyclic phosphodiesterase 10A (Homo sapiens, UniProt Q9Y233)
# PROCEDURE DETAILS: Inhibition of recombinant human N-terminal GST-tagged PDE10A1 (2 to 789 residues) expressed in baculovirus infected Sf9 cells using fluorescein-labeled cAMP as substrate preincubated for 15 mins followed by substrate addition measured after 30 mins by IMAP fluorescence polarization assay
MEASURED ENDPOINT: pIC50
Reminder that pIC50 is minus the log10 of a molar concentration.

Cc1noc(C)c1-c1ccc(Cn2c(C)nc3c(N4CCOCC4)ncnc32)cc1    6.92
Cc1nc2c(N3CCOCC3)ncnc2n1Cc1ccc(C(=O)Nc2ccccc2)cc1    6.89

Lookup: Entry Cc1nc2c(N3CCOCC3)ncnc2n1Cc1ccc(-c2cncnc2)cc1 : reported pIC50 = ?
Found: 7.12

----------
# TARGET OF ASSAY: CYP1A2 (Homo sapiens, UniProt P05177)
# PROCEDURE DETAILS: Inhibition of CYP1A2 in human microsomes at 10 uM using phenacetin as substrate preincubated for 5 mins followed by NADPH addition measured 20 mins relative to control
# Format: ADME
# TEST CONTEXT: probe phenacetin, read-out: TDI
Mark Yes for reported inhibition at 20 min, 10 µM of 30% or greater; mark No for anything smaller.

Cc1ccc(-c2ccc(Cn3cnc4c(N5CCOCC5)ncnc43)cc2)cc1    No
Cc1nc2c(N3CCOCC3)ncnc2n1Cc1ccc(-c2ccccc2Cl)cc1    No
COc1ccc(-c2ccc(CNc3c(C)nc4c(N5CCOCC5)nccn34)cc2)cc1OC    No
Cc1cc(-c2ccc(Cn3c(C)nc4c(N5CCOCC5)ncnc43)cc2)ccn1    Yes
Cc1nc2c(N3CCOCC3)ncnc2n1Cc1ccc(-c2cncnc2)cc1    No

Lookup: Textbook exercise: given the entry Cc1nc2c(N3CCOCC3)ncnc2n1Cc1ccc(-c2cnn(C)c2)cc1 , state whether its inhibition at 20 min, 10 µM is greater than or equal to 30%.
Found: No

----------
The following compounds are listed with their measured inhibition at 20 min, 10 µM values.
# TARGET OF ASSAY: UniProt:P10635
# Sequence (P10635 whole entry): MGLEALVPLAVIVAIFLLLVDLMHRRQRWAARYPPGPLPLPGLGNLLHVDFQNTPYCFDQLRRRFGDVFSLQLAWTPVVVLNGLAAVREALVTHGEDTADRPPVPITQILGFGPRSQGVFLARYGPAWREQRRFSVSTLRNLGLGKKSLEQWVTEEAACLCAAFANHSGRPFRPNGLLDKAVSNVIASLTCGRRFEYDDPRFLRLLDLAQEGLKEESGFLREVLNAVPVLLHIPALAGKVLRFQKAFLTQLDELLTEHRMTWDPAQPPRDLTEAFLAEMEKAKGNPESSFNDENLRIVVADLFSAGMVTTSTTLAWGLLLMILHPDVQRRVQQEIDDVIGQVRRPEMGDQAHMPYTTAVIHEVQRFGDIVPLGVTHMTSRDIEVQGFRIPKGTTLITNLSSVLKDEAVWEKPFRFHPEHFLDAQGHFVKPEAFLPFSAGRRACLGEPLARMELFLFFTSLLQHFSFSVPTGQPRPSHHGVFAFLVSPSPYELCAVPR
# PROCEDURE DETAILS: Inhibition of CYP2D6 in human microsomes at 10 uM using dextromethorphan as substrate preincubated for 5 mins followed by NADPH addition measured 20 mins relative to control
# Type: ADME
# TEST CONTEXT: human microsomes, probe dextromethorphan, read-out: TDI
Quick note: unit goes after the number.

Cc1nc2c(N3CCOCC3)ncnc2n1Cc1ccc(-c2ccccc2Cl)cc1    22%
Cc1ccc(-c2ccc(Cn3cnc4c(N5CCOCC5)ncnc43)cc2)cc1    6%
Cc1nc2c(N3CCOCC3)ncnc2n1Cc1ccc(-c2cnn(C)c2)cc1    7%
COc1ccc(-c2ccc(CNc3c(C)nc4c(N5CCOCC5)nccn34)cc2)cc1OC    24%

# context switch: different compound, same inhibition at 20 min, 10 µM
Lookup: Recorded inhibition at 20 min, 10 µM of Cc1cc(-c2ccc(Cn3c(C)nc4c(N5CCOCC5)ncnc43)cc2)ccn1 , please.
Found: 6%
